- Tested on: GP7TB cells
- protocol notes: Growth inhibition (cell number), GP7TB
- Assay type: cell-based, rat
- particulars: Rattus norvegicus; GP7TB cells, molar; read-out: 50% inhibition concentration (IC50)
- Experimental: Rat liver cancer cell line GP7TB and human liver cancer cell line Huh-7 and HepG2 at 10^4 cells each were seeded in individual wells of a 96-well cultural plate. […] Since MTS reagent contains 3-(4,5-dimethylhiazol-2-yl)-5-(3-carboxymethoxyphenyl)-2-(4-sulfophenyl)-2H-tetrazolium, which could be metabolized by NADH or NADPH dehydrogenase in living cells to a formazan product, cellular survival rates could be estimated from different readings at 490 nm. […]
observable: IC50

{"columns": ["molecular string", "observable", "val"],
 "data": [
  ["COc1cccc2c1C(=O)c1c(O)c3c(c(O)c1C2=O)C[C@@](O)(C(=O)CO)C[C@@H]3O[C@H]1C[C@H](N)[C@H](O)[C@H](C)O1", "IC50", "2.66 µM"]
]}

The origin of these recorded values is patent US20100179098A1.
